target: human CK1δ (Cos 7 cells cotransfected with mouse Per3-GFP) (Homo sapiens); construct: His tag of the vector pcDNA4/hisA (only the vector name is printed); test: CK1 WCA HCS nuclear translocation assay (CK1δ); details: inhibition of mPer3-GFP translocation to the nucleus, overnight exposure, read-out: CK1 δ WCA EC50
Recorded metric: EC50 (nM)

Worked cases, EC50 given:
[[record]]
compound = "CCC(=O)N1Cc2nccc(-c3cn(C)nc3-c3ccc(F)cc3)c2C1"
recorded_metric = "EC50"
endpoint_value = 16.2

[[record]]
compound = "Cn1cc(-c2ccnc3c2C(=O)N(CCC#N)C3)c(-c2ccc(F)cc2)n1"
recorded_metric = "EC50"
endpoint_value = 53.7


[a] CNC1CCc2c(-c3cn(C)nc3-c3ccc(F)cc3)ccnc21 (centres unmarked)
[b] Cn1cc(-c2ccnc3c2CN(C(=O)CC2CC2)C3)c(-c2ccc(F)cc2)n1
[c] Cn1cc(-c2ccnc3c2CN(S(=O)(=O)C2CC2)C3)c(-c2ccc(F)cc2)n1
Ask | Please list the entries, largest EC50 first. Write out the labels following the order that was asked for.
Reply | c, a, b

----------
Quick record of pIC50 values for CKI ε wild type (Homo sapiens).
pIC50: −log10 of the molar value.
Recorded metric: pIC50

[[record]]
molecule = "Cc1cc(CN2Cc3nccc(-c4cn(C)nc4-c4ccc(F)cc4)c3C2=O)nn1C"
assayed_system = "CKI ε wild type (Homo sapiens)"
recorded_metric = "pIC50"
endpoint_value = 7.06


[P] Cn1cc(-c2ccnc3c2C(=O)N(CC2CC2)C3)c(-c2ccc(F)cc2)n1
[Q] Cn1cc(-c2ccnc3c2C(=O)N(CC2CCOC2)C3)c(-c2ccc(F)cc2)n1 (stereo not shown)
Ask | // which entry reports the smaller pIC50, P or Q ? Reply briefly: the label of your chosen item.
Reply | Q

----------
molecular target: CKIδ wild type (Homo sapiens, UniProt P48730)
Sequence (P48730 whole entry): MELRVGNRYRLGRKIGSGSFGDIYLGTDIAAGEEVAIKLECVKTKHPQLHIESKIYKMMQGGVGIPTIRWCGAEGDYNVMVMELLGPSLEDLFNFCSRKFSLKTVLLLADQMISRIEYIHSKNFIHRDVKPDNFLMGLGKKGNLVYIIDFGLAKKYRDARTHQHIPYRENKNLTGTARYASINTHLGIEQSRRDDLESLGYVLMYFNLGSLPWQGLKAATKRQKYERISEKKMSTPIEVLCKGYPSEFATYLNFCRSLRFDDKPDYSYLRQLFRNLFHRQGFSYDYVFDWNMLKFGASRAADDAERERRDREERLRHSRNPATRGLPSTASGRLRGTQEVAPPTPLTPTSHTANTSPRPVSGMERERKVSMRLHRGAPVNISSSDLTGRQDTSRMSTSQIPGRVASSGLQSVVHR
Recorded metric: IC50 (nM)

[[record]]
smiles_structure = "Cn1cc(-c2ccnc3c2C(=O)N(C24CC(C2)C4)C3)c(-c2ccc(F)cc2)n1"
recorded_metric = "IC50"
endpoint_value = 18.4

[[record]]
smiles_structure = "Cc1c(CN2Cc3nccc(-c4cn(C)nc4-c4ccc(F)cc4)c3C2=O)cnn1C"
recorded_metric = "IC50"
endpoint_value = 23.3

[[record]]
smiles_structure = "Cn1cc(-c2ccnc3c2C(=O)N(Cc2cccnc2)C3)c(-c2ccc(F)cc2)n1"
recorded_metric = "IC50"
endpoint_value = 21.3


----------
target: human CK1Epsilon (Cos 7 cells cotransfected with mouse Per3-GFP) (Homo sapiens); construct: His tag of the vector pcDNA4/hisA (only the vector name is printed); assay: CK1 WCA HCS nuclear translocation assay (CK1ε); details: inhibition of mPer3-GFP translocation to the nucleus, overnight exposure, read-out: CK1 ε WCA EC50
pEC50: −log10 of the molar value.
Recorded metric: pEC50

[[record]]
compound = "CCN1Cc2nccc(-c3cn(C)nc3-c3ccc(F)cc3)c2C1=O [Example 34]"
assayed_system = "human CK1Epsilon (Cos 7 cells cotransfected with mouse Per3-GFP) (Homo sapiens)"
recorded_metric = "pEC50"
endpoint_value = 6.33


[a] CCC(=O)N1Cc2nccc(-c3cn(C)nc3-c3ccc(F)cc3)c2C1 [Example 13]
[b] Cn1cc(-c2ccnc3c2CN(C(=O)C2CCOCC2)C3)c(-c2ccc(F)cc2)n1 [Example 19]
Ask | // which entry reports the smaller pEC50, a or b ? Reply briefly: the label of your chosen item.
Reply | b

----------
Target: human CK1δ (Cos 7 cells cotransfected with mouse Per3-GFP) (Homo sapiens)
Construct: His tag of the vector pcDNA4/hisA (only the vector name is printed)
Test: CK1 WCA HCS nuclear translocation assay (CK1δ)
Conditions: inhibition of mPer3-GFP translocation to the nucleus, overnight exposure, read-out: CK1 δ WCA EC50
Description: CK1 WCA HCS Nuclear Translocation Assay. Cos 7 cells were maintained at 37° C. in 5% CO2 in Dulbecco's Modified Eagle Medium (Gibco 11995) supplemented with 10% fetal bovine serum. Log-phase cells were dislodged with 5 min treatment of TrypLE Express (Gibco 12605) and viable cell count was determined with Cedex cell counter. Cells were diluted in DMEM medium to a density of 1.5e5 viable cells/mL in ⅔ of the final volume of final transfected cell mix. […]
Recorded metric: EC50 (nM)

[[record]]
smiles_structure = "Cn1cc(-c2ccnc3c2C(=O)N(C24CC(C2)C4)C3)c(-c2ccc(F)cc2)n1"
assayed_system = "human CK1δ (Cos 7 cells cotransfected with mouse Per3-GFP) (Homo sapiens)"
endpoint_value = 130

[[record]]
smiles_structure = "Cn1cc(-c2ccnc3c2C(=O)N(C2CCCC2)C3)c(-c2ccc(F)cc2)n1"
assayed_system = "human CK1δ (Cos 7 cells cotransfected with mouse Per3-GFP) (Homo sapiens)"
endpoint_value = 84.9

[[record]]
smiles_structure = "Cn1cc(-c2ccnc3c2CN(C(=O)Cc2ncccn2)C3)c(-c2ccc(F)cc2)n1"
assayed_system = "human CK1δ (Cos 7 cells cotransfected with mouse Per3-GFP) (Homo sapiens)"
endpoint_value = 84.7

[[record]]
smiles_structure = "Cn1cc(-c2ccnc3c2C(=O)NC3)c(-c2ccc(F)cc2)n1"
assayed_system = "human CK1δ (Cos 7 cells cotransfected with mouse Per3-GFP) (Homo sapiens)"
endpoint_value = 122

[[record]]
smiles_structure = "Cn1cc(-c2ccnc3c2C(=O)N(Cc2cccc(C#N)c2)C3)c(-c2ccc(F)cc2)n1"
assayed_system = "human CK1δ (Cos 7 cells cotransfected with mouse Per3-GFP) (Homo sapiens)"
endpoint_value = 65.5


[a] Cn1cc(-c2ccnc3c2C(=O)N(CCOC(C)(C)C)C3)c(-c2ccc(F)cc2)n1
[b] Cn1cc(-c2ccnc3c2C(=O)N(CC2CC2)C3)c(-c2ccc(F)cc2)n1
Ask | // which entry reports the smaller EC50, a or b ? Reply briefly: the label of your chosen item.
Reply | b
(b: 74.1 nM, a: 159 nM)

[A] Cc1cc(CN2Cc3nccc(-c4cn(C)nc4-c4ccc(F)cc4)c3C2=O)nn1C
[B] CCN1Cc2nccc(-c3cn(C)nc3-c3ccc(F)cc3)c2C1=O
Ask | // which entry reports the smaller EC50, A or B ? Reply briefly: the label of your chosen item.
Reply | A
(A: 66.4 nM, B: 99 nM)

[1] CN1Cc2nccc(-c3cn(C)nc3-c3ccc(Cl)cc3)c2C1=O
[2] Cn1cc(CN2Cc3nccc(-c4cn(C)nc4-c4ccc(F)cc4)c3C2=O)cn1
Ask | // which entry reports the smaller EC50, 1 or 2 ? Reply briefly: the label of your chosen item.
Reply | 1
(1: 78.2 nM, 2: 125 nM)

----------
target: human CK1Epsilon (Cos 7 cells cotransfected with mouse Per3-GFP) (Homo sapiens, UniProt P49674); construct: His tag of the vector pcDNA4/hisA (only the vector name is printed); assay: CK1 WCA HCS nuclear translocation assay (CK1ε); details: inhibition of mPer3-GFP translocation to the nucleus, overnight exposure, read-out: CK1 ε WCA EC50
Sequence (P49674 whole entry): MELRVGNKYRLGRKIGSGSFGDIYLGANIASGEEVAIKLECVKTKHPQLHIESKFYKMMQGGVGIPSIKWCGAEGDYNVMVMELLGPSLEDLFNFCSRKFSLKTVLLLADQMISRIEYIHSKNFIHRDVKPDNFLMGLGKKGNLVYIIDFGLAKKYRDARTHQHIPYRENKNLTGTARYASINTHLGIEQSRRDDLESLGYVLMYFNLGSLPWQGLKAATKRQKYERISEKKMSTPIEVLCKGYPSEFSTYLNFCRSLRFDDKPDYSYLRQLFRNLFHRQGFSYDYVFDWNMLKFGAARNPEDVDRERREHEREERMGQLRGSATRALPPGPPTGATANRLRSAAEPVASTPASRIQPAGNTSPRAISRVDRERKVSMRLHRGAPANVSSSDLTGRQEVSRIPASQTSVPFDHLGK
Recorded metric: EC50 (nM)

[[record]]
smiles_structure = "COCC(=O)N1Cc2nccc(-c3cn(C)nc3-c3ccc(F)cc3)c2C1"
endpoint_value = 210


[P] CC(=O)N1Cc2nccc(-c3cn(C)nc3-c3ccc(F)cc3)c2C1
[Q] Cn1cc(-c2ccnc3c2CN(C(=O)CC2CC2)C3)c(-c2ccc(F)cc2)n1
Ask | # argmax over EC50 for candidates P and Q Reply briefly: the label of your chosen item.
Reply | P
